protocolNotes: Permeability of compound in PBS buffer at pH 6.6 by PAMPA-GIT assay
Type: ADME
attributeMeasured: Fa (%)
Reply with just the number (in %).

INPUT: Given O=C(CN1C(=O)c2ccccc2C1=O)N1CCN(c2ccncc2)CC1 , state its recorded Fa.
OUTPUT: 69.8

###

Catalogue of compounds with associated inhibition
testedOn: Cholinesterase (Equus caballus)
protocolNotes: Inhibition of equine serum BuChE using S-butyrylthiocholine iodide as a substrate at 30 uM incubated for 10 mins by DTNB reagent based Ellman's method
Type: cell-free
Reply with just the number (in %).

See these solved cases before continuing.
O=C(CN1C(=O)c2ccccc2C1=O)N1CCN(c2ccc(Cl)cc2)CC1 -2.09
O=C(CN1C(=O)c2ccccc2C1=O)N1CCN(Cc2ccc(Br)cc2)CC1 -1.37
O=C(CN1C(=O)c2ccccc2C1=O)N1CCN(c2ccncc2)CC1 -4.47
COc1ccc(CN2CCN(C(=O)CN3C(=O)c4ccccc4C3=O)CC2)cc1 25.4

Could you now look at the following compound, please?
INPUT: Lab note: need inhibition with Cholinesterase (Equus caballus) for entry O=C(CN1C(=O)c2ccccc2C1=O)N1CCN(Cc2ccc(Cl)cc2)CC1 , please look it up.
OUTPUT: 1.26

###

testedOn: Acetylcholinesterase (Electrophorus electricus)
Sequence (O42275 whole entry): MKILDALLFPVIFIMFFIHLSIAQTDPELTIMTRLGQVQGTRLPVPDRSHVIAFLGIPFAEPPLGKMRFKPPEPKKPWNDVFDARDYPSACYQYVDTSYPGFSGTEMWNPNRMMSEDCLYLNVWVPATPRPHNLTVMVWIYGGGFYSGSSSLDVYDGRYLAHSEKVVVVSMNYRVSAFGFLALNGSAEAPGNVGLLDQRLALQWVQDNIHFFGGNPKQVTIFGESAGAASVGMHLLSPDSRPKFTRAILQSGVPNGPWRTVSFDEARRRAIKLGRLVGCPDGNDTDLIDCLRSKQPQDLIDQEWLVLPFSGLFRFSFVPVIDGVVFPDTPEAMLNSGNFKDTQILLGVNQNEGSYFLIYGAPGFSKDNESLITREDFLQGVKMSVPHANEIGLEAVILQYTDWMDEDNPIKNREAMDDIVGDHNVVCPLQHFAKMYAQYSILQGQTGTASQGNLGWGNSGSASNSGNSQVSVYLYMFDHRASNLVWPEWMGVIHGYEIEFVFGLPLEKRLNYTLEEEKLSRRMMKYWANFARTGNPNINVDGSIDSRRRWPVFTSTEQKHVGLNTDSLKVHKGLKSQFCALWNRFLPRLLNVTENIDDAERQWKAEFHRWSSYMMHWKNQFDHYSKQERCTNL
protocolNotes: Inhibition of electric eel AChE using […] as a substrate at 30 uM incubated for 10 mins by DTNB reagent based Ellman's method
Record YES whenever inhibition is at 10% or higher; record NO when lower.

O=C(CN1C(=O)c2ccccc2C1=O)N1CCN(c2ccc([N+](=O)[O-])cc2)CC1 YES
O=C(CN1C(=O)c2ccccc2C1=O)N1CCN(Cc2ccc(Cl)cc2)CC1 NO

INPUT: Is it the case that COc1ccc(CN2CCN(C(=O)CN3C(=O)c4ccccc4C3=O)CC2)cc1 has inhibition reaching or exceeding 10%?
OUTPUT: YES

INPUT: Is it the case that Cc1ccc(N2CCN(C(=O)CN3C(=O)c4ccccc4C3=O)CC2)cc1 has inhibition reaching or exceeding 10%?
OUTPUT: YES

INPUT: Is it the case that O=C(CN1C(=O)c2ccccc2C1=O)N1CCN(c2ccncc2)CC1 has inhibition reaching or exceeding 10%?
OUTPUT: YES

###

testedOn: UniProtKB O42275
attributeMeasured: pIC50
Entry type: numeric. Quantity: pIC50, the -log10 of concentration in molar units.

INPUT: Given O=C(CN1C(=O)c2ccccc2C1=O)N1CCN(c2ccncc2)CC1 , state its recorded pIC50.
OUTPUT: 5.50

###

testedOn: UniProt P81908
Sequence (P81908 whole entry): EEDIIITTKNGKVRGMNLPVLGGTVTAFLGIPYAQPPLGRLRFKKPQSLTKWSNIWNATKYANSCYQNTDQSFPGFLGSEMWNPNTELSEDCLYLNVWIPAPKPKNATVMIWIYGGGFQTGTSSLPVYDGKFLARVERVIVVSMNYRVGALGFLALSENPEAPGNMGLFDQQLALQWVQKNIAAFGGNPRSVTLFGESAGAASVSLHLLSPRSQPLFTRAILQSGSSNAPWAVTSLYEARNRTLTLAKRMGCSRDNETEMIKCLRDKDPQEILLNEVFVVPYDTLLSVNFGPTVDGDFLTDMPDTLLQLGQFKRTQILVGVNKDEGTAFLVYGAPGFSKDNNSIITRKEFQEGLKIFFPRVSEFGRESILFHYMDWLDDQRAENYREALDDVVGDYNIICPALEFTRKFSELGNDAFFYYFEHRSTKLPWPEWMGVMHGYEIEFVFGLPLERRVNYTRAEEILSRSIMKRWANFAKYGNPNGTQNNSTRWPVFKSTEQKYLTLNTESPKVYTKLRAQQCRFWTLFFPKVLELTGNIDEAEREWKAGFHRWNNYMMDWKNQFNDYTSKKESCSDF
protocolNotes: Inhibition of equine serum BuChE using S-butyrylthiocholine iodide as a substrate at 30 uM incubated for 10 mins by DTNB reagent based Ellman's method
Assay type: cell-free
Catalogue of compounds with associated inhibition
Reply with just the number (in %).

O=C(CN1C(=O)c2ccccc2C1=O)N1CCN(c2ccc([N+](=O)[O-])cc2)CC1 -4.97
O=C(CN1C(=O)c2ccccc2C1=O)N1CCN(c2ncccn2)CC1 -5.36

Could you now look at the following compound, please?
INPUT: Lab note: need inhibition with UniProt P81908 for entry Cc1ccc(N2CCN(C(=O)CN3C(=O)c4ccccc4C3=O)CC2)cc1 , please look it up.
OUTPUT: 0.3
